// provenance: PubChem BioAssay AID1963436

Test system: OVCAR-5 complex spheroid (HUVEC/MSC), viability % T/C
experimental.protocol: Anticancer human tumor OVCAR-5 cell line growth inhibition [Asc];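 note: spheroids exposed to agents for 7 days before readout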
assay.conditions: curve of first compound; second compound 0.1 µM
Description: Multicellular complex tumor spheroid response to apoptosis pathway targeting inhibitors Alrizomadlin, Pelcitoclax, and Dasminapant in combination with a variety of drugs and investigational agents in selected tumor cell lines […] Compounds. […] If the clinical Cmax for an agent had not been determined, the highest concentration tested was 10 microM. […]
Reported IC50 values are given for each entry in this list.

Some compounds with known IC50 results, for comparison:
compound: NC(=O)C(=Cn1cnc(-c2cc(C(F)(F)F)cc(C(F)(F)F)c2)n1)c1cncnc1 + Cc1c(S(C)(=O)=O)c(-c2cc(F)cc(N3CCN(c4ccc(NS(=O)(=O)c5ccc(NC(CCN6CCC(C(=O)OCCCP(=O)(O)O)CC6)CSc6ccccc6)c(S(=O)(=O)C(F)(F)F)c5)cc4)CC3)c2)c(-c2ccc(Cl)cc2)n1C(C)C
meas.value: 199 nM
--
compound: NC1CCC(NC2CC2c2ccccc2)CC1 (stereo not drawn) + Cc1c(S(C)(=O)=O)c(-c2cc(F)cc(N3CCN(c4ccc(NS(=O)(=O)c5ccc(NC(CCN6CCC(C(=O)OCCCP(=O)(O)O)CC6)CSc6ccccc6)c(S(=O)(=O)C(F)(F)F)c5)cc4)CC3)c2)c(-c2ccc(Cl)cc2)n1C(C)C
meas.value: > 100 nM

Here is the next item to consider.
Kindly note the recorded IC50 for Cn1ncnc1[C@H]1c2n[nH]c(=O)c3cc(F)cc(c23)N[C@@H]1c1ccc(F)cc1 + Cc1c(S(C)(=O)=O)c(-c2cc(F)cc(N3CCN(c4ccc(NS(=O)(=O)c5ccc(NC(CCN6CCC(C(=O)OCCCP(=O)(O)O)CC6)CSc6ccccc6)c(S(=O)(=O)C(F)(F)F)c5)cc4)CC3)c2)c(-c2ccc(Cl)cc2)n1C(C)C , which is > 100 nM
